tested on: MRSA C6068; experiment: Anti-microbial activity test in vitro (agar dilution MIC); type: cell-based, Staphylococcus aureus; settings: MRSA C6068; Agar Dilution method, Mueller Hinton Agar, 18 hours at 37° C.
# if value of Minimum inhibition concentration (MIC) reaches 8 µg/mL, tag 1; if it stays below, tag -1

[[record]]
compound = "CC(=O)NC[C@H]1CN(c2ccc(N3CCC(=CC#N)CC3)c(F)c2)C(=O)O1"
class = -1

[[record]]
compound = "CC(=S)NC[C@H]1CN(c2ccc(N3CCC(=CC#N)CC3)c(F)c2)C(=O)O1"
class = -1

[[record]]
compound = "CC(=O)C=C1CCN(c2ccc(N3C[C@H](CNC(C)=O)OC3=O)cc2F)CC1"
class = 1

[[record]]
compound = "CON=CC=C1CCN(c2ccc(N3C[C@H](CNC(C)=O)OC3=O)cc2F)CC1"
class = -1

[[record]]
compound = "CC(=O)NC[C@H]1CN(c2ccc(N3CCC(=CC=O)CC3)c(F)c2)C(=O)O1"
class = -1

[[record]]
compound = "CC(=O)NC[C@H]1CN(c2ccc(N3CCC(=CC=NO)CC3)c(F)c2)C(=O)O1"
class = -1

[[record]]
compound = "CC(=O)NC[C@H]1CN(c2ccc(N3CCC(=Cc4cc(-c5cccs5)no4)CC3)c(F)c2)C(=O)O1"
class = 1

[[record]]
compound = "CCOC(=O)C(C#N)=C1CCN(c2ccc(N3C[C@H](CNC(C)=O)OC3=O)cc2F)CC1"
class = -1

[[record]]
compound = "CC(=O)NC[C@H]1CN(c2ccc(N3CCC(=CC(C)=NO)CC3)c(F)c2)C(=O)O1"
class = -1

[[record]]
compound = "CC(=O)NC[C@H]1CN(c2ccc(N3CCC(=C(C)C#N)CC3)c(F)c2)C(=O)O1"
class = -1

[[record]]
compound = "CCOC(=O)C(Cl)=C1CCN(c2ccc(N3C[C@H](CNC(C)=O)OC3=O)cc2F)CC1"
class = 1

[[record]]
compound = "CC(=O)NC[C@H]1CN(c2ccc(N3CCC(=CC(=O)O)CC3)c(F)c2)C(=O)O1"
class = -1

[[record]]
compound = "CC(=O)NC[C@H]1CN(c2ccc(N3CCC(=CC(C)O)CC3)c(F)c2)C(=O)O1 (some centres unmarked)"
class = -1


----------
Recorded Minimum inhibition concentration (MIC) by entry
system: S. pyogenes C6012; assay: Anti-microbial activity test in vitro (agar dilution MIC); type: cell-based; details: S. pyogenes C6012; Agar Dilution method, Mueller Hinton Agar, 18 hours at 37° C.
Assay metric: Minimum inhibition concentration (MIC) (µg/mL)

[[record]]
molecule = "CC(=O)NC[C@H]1CN(c2ccc(N3CCC(=CC(=O)O)CC3)c(F)c2)C(=O)O1"
tgt = "S. pyogenes C6012"
unit_abbrev = "µg/mL"
readout_number = 8

[[record]]
molecule = "CCOC(=O)C=C1CCN(c2ccc(N3C[C@H](CNC(C)=O)OC3=O)cc2F)CC1"
tgt = "S. pyogenes C6012"
unit_abbrev = "µg/mL"
readout_number = 2

[[record]]
molecule = "CC(=O)NC[C@H]1CN(c2ccc(N3CCC(=CC(C)OC(C)=O)CC3)c(F)c2)C(=O)O1 (some centres unmarked)"
tgt = "S. pyogenes C6012"
unit_abbrev = "µg/mL"
readout_number = 2

[[record]]
molecule = "CC(=O)NC[C@H]1CN(c2ccc(N3CCC(=CC(C)O)CC3)c(F)c2)C(=O)O1 (some centres unmarked)"
tgt = "S. pyogenes C6012"
unit_abbrev = "µg/mL"
readout_number = 2

[[record]]
molecule = "CCOC(=O)C(Cl)=C1CCN(c2ccc(N3C[C@H](CNC(C)=O)OC3=O)cc2F)CC1"
tgt = "S. pyogenes C6012"
unit_abbrev = "µg/mL"
readout_number = 8

[[record]]
molecule = "CON=CC=C1CCN(c2ccc(N3C[C@H](CNC(C)=O)OC3=O)cc2F)CC1"
tgt = "S. pyogenes C6012"
unit_abbrev = "µg/mL"
readout_number = 1

[[record]]
molecule = "CCOC(=O)C(C)=C1CCN(c2ccc(N3C[C@H](CNC(C)=O)OC3=O)cc2F)CC1"
tgt = "S. pyogenes C6012"
unit_abbrev = "µg/mL"
readout_number = 16

[[record]]
molecule = "CC(=O)NC[C@H]1CN(c2ccc(N3CCC(=Cc4cc(-c5cccs5)no4)CC3)c(F)c2)C(=O)O1"
tgt = "S. pyogenes C6012"
unit_abbrev = "µg/mL"
readout_number = 4

[[record]]
molecule = "CC(=O)NC[C@H]1CN(c2ccc(N3CCC(=Cc4cc(-c5csnc5C)no4)CC3)c(F)c2)C(=O)O1"
tgt = "S. pyogenes C6012"
unit_abbrev = "µg/mL"
readout_number = 2

[[record]]
molecule = "CC(=O)C=C1CCN(c2ccc(N3C[C@H](CNC(C)=O)OC3=O)cc2F)CC1"
tgt = "S. pyogenes C6012"
unit_abbrev = "µg/mL"
readout_number = 16

[[record]]
molecule = "CC(=O)NC[C@H]1CN(c2ccc(N3CCC(=CC=O)CC3)c(F)c2)C(=O)O1"
tgt = "S. pyogenes C6012"
unit_abbrev = "µg/mL"
readout_number = 1

[[record]]
molecule = "CC(=O)NC[C@H]1CN(c2ccc(N3CCC(=CC#N)CC3)c(F)c2)C(=O)O1"
tgt = "S. pyogenes C6012"
unit_abbrev = "µg/mL"
readout_number = 0.5

[[record]]
molecule = "CON=C(C)C=C1CCN(c2ccc(N3C[C@H](CNC(C)=O)OC3=O)cc2F)CC1"
tgt = "S. pyogenes C6012"
unit_abbrev = "µg/mL"
readout_number = 2

[[record]]
molecule = "CC(=O)NC[C@H]1CN(c2ccc(N3CCC(=CC=NO)CC3)c(F)c2)C(=O)O1"
tgt = "S. pyogenes C6012"
unit_abbrev = "µg/mL"
readout_number = 1

[[record]]
molecule = "CC(=O)NC[C@H]1CN(c2ccc(N3CCC(=CC(C)=NO)CC3)c(F)c2)C(=O)O1"
tgt = "S. pyogenes C6012"
unit_abbrev = "µg/mL"
readout_number = 1

[[record]]
molecule = "CC(=O)NC[C@H]1CN(c2ccc(N3CCC(=CC(C)OC(=O)CCl)CC3)c(F)c2)C(=O)O1 (some centres unmarked)"
tgt = "S. pyogenes C6012"
unit_abbrev = "µg/mL"
readout_number = 2

[[record]]
molecule = "CCOC(=O)C(C#N)=C1CCN(c2ccc(N3C[C@H](CNC(C)=O)OC3=O)cc2F)CC1"
tgt = "S. pyogenes C6012"
unit_abbrev = "µg/mL"
readout_number = 1

[[record]]
molecule = "CC(=S)NC[C@H]1CN(c2ccc(N3CCC(=CC#N)CC3)c(F)c2)C(=O)O1"
tgt = "S. pyogenes C6012"
unit_abbrev = "µg/mL"
readout_number = 0.25

[[record]]
molecule = "CC(=O)NC[C@H]1CN(c2ccc(N3CCC(=CC(C)OC(=O)C(Cl)Cl)CC3)c(F)c2)C(=O)O1 (some centres unmarked)"
tgt = "S. pyogenes C6012"
unit_abbrev = "µg/mL"
readout_number = 2

[[record]]
molecule = "CC(=O)NC[C@H]1CN(c2ccc(N3CCC(=C(C)C#N)CC3)c(F)c2)C(=O)O1"
tgt = "S. pyogenes C6012"
unit_abbrev = "µg/mL"
readout_number = 2

